Molecular target: EPHB2 (UniProt P29323)
Sequence (P29323 whole entry, looked up): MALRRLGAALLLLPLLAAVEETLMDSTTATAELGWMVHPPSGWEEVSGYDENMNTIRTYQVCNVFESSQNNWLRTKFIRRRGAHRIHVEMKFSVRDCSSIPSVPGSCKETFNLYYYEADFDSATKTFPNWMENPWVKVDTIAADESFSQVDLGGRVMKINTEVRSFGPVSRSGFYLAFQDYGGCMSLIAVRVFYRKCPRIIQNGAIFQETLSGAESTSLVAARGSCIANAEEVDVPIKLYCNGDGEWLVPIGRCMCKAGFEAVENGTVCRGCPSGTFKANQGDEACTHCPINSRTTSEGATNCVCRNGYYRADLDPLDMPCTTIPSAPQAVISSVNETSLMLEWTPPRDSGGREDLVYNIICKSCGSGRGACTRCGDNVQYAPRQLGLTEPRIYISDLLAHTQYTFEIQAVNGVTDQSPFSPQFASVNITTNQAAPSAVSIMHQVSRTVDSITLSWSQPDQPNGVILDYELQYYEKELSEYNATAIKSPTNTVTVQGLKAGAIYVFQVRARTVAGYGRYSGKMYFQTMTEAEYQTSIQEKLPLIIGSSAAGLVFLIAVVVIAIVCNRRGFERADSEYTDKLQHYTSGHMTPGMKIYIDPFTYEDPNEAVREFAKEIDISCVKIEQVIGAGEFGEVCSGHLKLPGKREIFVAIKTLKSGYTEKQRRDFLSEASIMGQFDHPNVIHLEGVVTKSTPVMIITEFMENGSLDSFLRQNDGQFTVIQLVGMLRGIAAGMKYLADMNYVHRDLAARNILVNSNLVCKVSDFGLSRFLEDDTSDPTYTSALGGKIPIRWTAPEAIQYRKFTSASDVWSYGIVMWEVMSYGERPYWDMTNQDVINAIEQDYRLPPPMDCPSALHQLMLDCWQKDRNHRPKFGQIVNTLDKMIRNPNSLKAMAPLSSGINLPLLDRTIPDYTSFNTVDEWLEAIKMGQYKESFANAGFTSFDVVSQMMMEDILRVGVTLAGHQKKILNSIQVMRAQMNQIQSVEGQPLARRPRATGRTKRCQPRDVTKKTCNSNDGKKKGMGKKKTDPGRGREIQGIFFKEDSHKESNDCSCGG
Assay: phosphorylation enrichment, bacterial display (enrichment ratio); higher = better substrate or ligand; peptides without Tyr show the background
Please go through the items and note down their phosphorylation enrichment.
Give bare numbers.

Would you please look over these solved cases?
polymer sequence: GGPAGYLRRAS [PKLR_Y38]
phosphorylation enrichment: 0.398
//
polymer sequence: PVGDAYKKKGL [NMNAT1_Y55]
phosphorylation enrichment: 0.924
//
polymer sequence: IDGLEYLHSPG [STK11_Y166_Q170P]
phosphorylation enrichment: 0.584
//
polymer sequence: STEAIYWRFSK [SH3PXD2B_Y42_R43W_YF]
phosphorylation enrichment: 0.74
//
polymer sequence: KSSDVYVSFDC [SORL1_Y136_Y141C_YF]
phosphorylation enrichment: 0.802
//
polymer sequence: PFADPYFDFEI [ZC3H18_Y371_YF]
phosphorylation enrichment: 0.369

Would you mind giving phosphorylation enrichment for every sequence in the list below?
1. PEAALYGRFTI [FYN_Y440]
2. NQKGKYFNVER [ANAPC4_Y469_R465Q]
3. SHLEDYPFDAE [AKR1B10_Y310_N313D]
4. TGDFGYRTPGF [TNS2_Y668_A670T_YF]
5. SIRFNYLLDVL [FGFR4_Y237_YF]
6. SRGSSYSSIPK [FLNC_Y2625]

Reply:
[0.514, 0.372, 0.554, 0.419, 0.518, 0.322]

Would you mind giving phosphorylation enrichment for every sequence in the list below?
1. KVGNEYVTKGQ [MYH7_Y410]
2. LSQDVYEEDSY [RET_Y900_R897Q]
3. RFLERDIYNRE [HLA-DPB1_Y57_Y57D]
4. GLAKEYTDPET [CSNK1G2_Y195_I196T]
5. GCRSKYVGLWG [KCNQ1_Y184]

Reply:
1. 0.495
2. 1.19
3. 1.48
4. 0.736
5. 0.456

----------
Target: Fyn (UniProt P06241)
Sequence (P06241 whole entry, looked up): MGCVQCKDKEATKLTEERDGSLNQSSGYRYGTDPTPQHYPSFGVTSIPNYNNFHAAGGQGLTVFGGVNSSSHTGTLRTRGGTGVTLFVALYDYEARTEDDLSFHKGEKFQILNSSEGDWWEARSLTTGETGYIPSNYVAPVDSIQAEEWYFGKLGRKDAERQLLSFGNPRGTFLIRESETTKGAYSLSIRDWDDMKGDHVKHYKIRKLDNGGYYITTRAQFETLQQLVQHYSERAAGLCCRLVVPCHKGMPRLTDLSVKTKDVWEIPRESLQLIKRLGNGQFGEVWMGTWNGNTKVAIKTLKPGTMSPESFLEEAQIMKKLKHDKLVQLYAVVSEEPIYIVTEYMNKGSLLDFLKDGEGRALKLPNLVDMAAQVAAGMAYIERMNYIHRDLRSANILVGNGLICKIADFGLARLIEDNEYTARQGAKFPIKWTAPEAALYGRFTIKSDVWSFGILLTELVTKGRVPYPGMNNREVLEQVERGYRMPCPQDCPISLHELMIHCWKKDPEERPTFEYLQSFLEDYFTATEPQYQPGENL
Assay: phosphorylation enrichment, bacterial display (enrichment ratio); higher = better substrate or ligand; peptides without Tyr show the background
Grouping by measured phosphorylation enrichment is done with the following cut points: LOW: < 0.5; MID: ≥ 0.5 and < 0.8; HIGH: ≥ 0.8

polymer sequence: ALPVFYAATIA [SLC20A2_Y187]
system name: Fyn (UniProt P06241)
label class: MID

polymer sequence: QRKRAYVEIEF [MAK16_Y282_YF]
system name: Fyn (UniProt P06241)
label class: MID

polymer sequence: QRALLYEDALF [UNC13D_Y56_YF]
system name: Fyn (UniProt P06241)
label class: HIGH

Query: Into which category would you place IFCIQYNICAF [MYH4_Y820_R823C] ?
Reply: LOW

Query: Into which category would you place RFLERDIYNRE [HLA-DPB1_Y57_Y57D] ?
Reply: HIGH

Query: Into which category would you place KYVKMYDNHQL [MYO9A_Y203] ?
Reply: LOW

Query: Into which category would you place TEQDPYNNIVR [MMUT_Y364] ?
Reply: MID

Query: Into which category would you place GESLTYASTTF [C1orf162_Y120] ?
Reply: HIGH

----------
Test system: Fer (mouse)
Assay: phosphorylation enrichment, bacterial display (enrichment ratio); higher = better substrate or ligand; peptides without Tyr show the background
attribute measured: phosphorylation enrichment
Numbers only.

Would you please look over these solved cases?
polymer sequence: HDRNTYEKFLE [TF_Y666_G671E_YF]
system name: Fer (mouse)
phosphorylation enrichment: 0.56

polymer sequence: KAPVDYIRKLQ [MITF_Y360_S357P]
system name: Fer (mouse)
phosphorylation enrichment: 0.365

polymer sequence: KACNPYKPPGP
system name: Fer (mouse)
phosphorylation enrichment: 0.521

polymer sequence: RLAKTYKTTLE [ALB_Y377_E378K]
system name: Fer (mouse)
phosphorylation enrichment: 0.624

polymer sequence: GDFFRYLAEVA [YWHAG_Y133_YF]
system name: Fer (mouse)
phosphorylation enrichment: 0.486

polymer sequence: PEAALYGRFTI [FYN_Y440]
system name: Fer (mouse)
phosphorylation enrichment: 1.67

polymer sequence: AIFEGYALPHA [ACTC1_Y171_P166A_YF]
system name: Fer (mouse)
phosphorylation enrichment: 0.605

polymer sequence: RTVPLYESPRK [DDB1_Y718]
system name: Fer (mouse)
phosphorylation enrichment: 16

Would you mind giving phosphorylation enrichment for every sequence in the list below?
1. VVQGLYKSMPK [KBTBD2_Y250]
2. PGVNYYFQVSA
3. VFPIDYFFPPQ [AR_Y552_L548F_YF]

Reply:
0.328
0.907
0.643

----------
Please go through the items and note down their phosphorylation enrichment.
Test system: Fer (mouse)
Assay: phosphorylation enrichment, bacterial display (enrichment ratio); higher = better substrate or ligand; peptides without Tyr show the background

Would you please look over these solved cases?
polymer sequence: LLNPSYNLPLD [TOM1L1_Y109_R108S]
phosphorylation enrichment: 0.808

polymer sequence: ITRDIYETDFF [INSR_Y1185_M1180I_YF]
phosphorylation enrichment: 0.983

Query: Please look at this sequence and report its phosphorylation enrichment: DLHGIYQKLVI
Reply: 11.4

----------
Please go through the items and note down their phosphorylation enrichment.
Molecular target: FGFR3 (UniProt P22607)
Sequence (P22607 whole entry, looked up): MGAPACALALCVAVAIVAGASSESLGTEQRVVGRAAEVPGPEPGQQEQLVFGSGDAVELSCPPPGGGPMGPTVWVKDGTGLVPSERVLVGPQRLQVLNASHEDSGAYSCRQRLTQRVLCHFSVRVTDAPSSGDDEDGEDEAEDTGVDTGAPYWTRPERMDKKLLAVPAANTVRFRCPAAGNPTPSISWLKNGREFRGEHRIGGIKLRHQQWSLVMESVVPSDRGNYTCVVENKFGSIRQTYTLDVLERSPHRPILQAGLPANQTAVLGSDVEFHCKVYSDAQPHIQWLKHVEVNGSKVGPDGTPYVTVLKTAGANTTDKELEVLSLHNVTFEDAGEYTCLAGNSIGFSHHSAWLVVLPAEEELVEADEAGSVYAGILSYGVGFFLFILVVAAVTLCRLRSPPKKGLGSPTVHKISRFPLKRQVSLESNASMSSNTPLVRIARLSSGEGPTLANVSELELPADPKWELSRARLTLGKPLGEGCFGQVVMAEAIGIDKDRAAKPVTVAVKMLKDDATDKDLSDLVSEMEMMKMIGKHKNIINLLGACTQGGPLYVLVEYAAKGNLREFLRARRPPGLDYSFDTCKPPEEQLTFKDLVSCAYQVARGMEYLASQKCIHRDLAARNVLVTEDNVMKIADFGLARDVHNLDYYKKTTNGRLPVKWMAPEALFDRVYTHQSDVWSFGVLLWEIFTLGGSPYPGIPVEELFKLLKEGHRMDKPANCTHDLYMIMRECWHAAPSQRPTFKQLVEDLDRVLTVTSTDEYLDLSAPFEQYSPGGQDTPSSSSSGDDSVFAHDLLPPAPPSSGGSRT
Test: phosphorylation enrichment, bacterial display (enrichment ratio); higher = better substrate or ligand; peptides without Tyr show the background
Answers are plain numbers.

Would you please look over these solved cases?
polymer sequence: MAALSYVSEIG [BPIFB2_Y36_K31M]
experimental result: 0.584
//
polymer sequence: NFHRGYHLQVL [CD200R1L_Y138]
experimental result: 0.606
//
polymer sequence: GESLTYASTTF [C1orf162_Y120]
experimental result: 0.408
//
polymer sequence: ILTLKYPIELG [ACTA1_Y71_H75L]
experimental result: 0.601
//
polymer sequence: PARLEYCENEK [IRS1_Y46_Y47C]
experimental result: 1.16

Would you mind giving phosphorylation enrichment for every sequence in the list below?
1. PGVNYYFQVSA
2. FDEFRYRSFIK [CFTR_Y517_V520F_YF]
3. KDHPDYEFQPR [SOX9_Y172_K173E_YF]
4. EKEKKYMLPLD [DNM2_Y563]
5. MPPHIYAITDT [MYH9_Y151]
6. CNSFQYGGGGG [NPPA_Y151_R150Q]
7. GIVEDYRPPFY [ACVRL1_Y421]

Reply:
1. 3.16
2. 0.526
3. 0.614
4. 0.466
5. 0.514
6. 0.549
7. 0.633

----------
Molecular target: SHP2-C SH2;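 also: peptide library displayed on the E. coli surface as eCPX fusions, selected cells deep-sequenced, score is each peptide's frequency after selection divided by its frequency in the input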
Assay: SH2 binding enrichment of the phosphorylated peptide, bacterial display (enrichment ratio); higher = better substrate or ligand; peptides without Tyr show the background
Please go through the items and note down their SH2 binding enrichment.
Numbers only.

polymer sequence: EIVYVYVKKRS [DNAI2_Y7]
SH2 binding enrichment: 0.805

Would you mind giving SH2 binding enrichment for every sequence in the list below?
1. FHIDHYLGKEM [G6PD_Y202_R198H_YF]
2. GIVEDYRPPFY [ACVRL1_Y421]
3. DAVAVYHGKIS [SH2D1A_Y7]
4. PSARTYCYKQE [KLHDC9_Y175]
5. ENFDDYMKEVG [FABP4_Y20]
6. PEFVVYKPQME [CCRL2_Y170]
7. IVRSRYEDLED [VHL_Y185_L184R]
8. IALNSCHSRNC [IFNGR1_Y397_Y397C]

Reply:
1: 0.787; 2: 0.813; 3: 0.82; 4: 0.815; 5: 0.791; 6: 0.686; 7: 0.602; 8: 0.645

----------
Please go through the items and note down their phosphorylation enrichment.
System: c-Abl (mouse)
Test: phosphorylation enrichment, bacterial display (enrichment ratio); higher = better substrate or ligand; peptides without Tyr show the background
Numbers only.

Would you please look over these solved cases?
polymer sequence: VAVVQYSGTGQ [COL6A1_Y878]
phosphorylation enrichment: 0.592

polymer sequence: SQKRKYIEIDS [SDAD1_Y580]
phosphorylation enrichment: 0.613

With those in mind, consider the next sequence.
Query: Please look at this sequence and report its phosphorylation enrichment: DDPRRYQKYGY [OAS1_Y362]
Reply: 0.592

----------
Please go through the items and note down their phosphorylation enrichment.
Target: Fyn (UniProt P06241)
Test: phosphorylation enrichment, bacterial display (enrichment ratio); higher = better substrate or ligand; peptides without Tyr show the background
Give bare numbers.

polymer sequence: IYHLSYIHNCE [PDE6B_Y227_L228I]
attribute measured: phosphorylation enrichment
experimental result: 2.78

Would you mind giving phosphorylation enrichment for every sequence in the list below?
1. VSVVDYVEPSP [TXNRD2_Y70_A66S]
2. VCHELYNAIRD [PBRM1_Y54_T56A]
3. SIKDKYLTALY [KCNH2_Y611_V612L]
4. EKEQNYDLTEV [ECD_Y448]

Reply:
1: 0.494; 2: 0.672; 3: 0.56; 4: 0.544
